From: patent US20050209157A1

System: P. aeruginosa
Type: cell-based, Pseudomonas aeruginosa
Conditions: P. aeruginosa H744; MIC of nalidixic acid with peptide at ¼ MIC
No end group written: not given here.
Endpoint Name: MIC Nal-comb. (µg/mL)

{"Substance": "FAKKLAKLALKLAKL-NH2 [P44]", "Assay System": "P. aeruginosa", "Reading": 624}
{"Substance": "FAKLLALALKKAL-NH2 [P97, FAKLLALALKKAL-NH2]", "Assay System": "P. aeruginosa", "Reading": 78}
{"Substance": "KWKLFKKKTKLFKKFAKKLAKKL-OH [P81]", "Assay System": "P. aeruginosa", "Reading": 624}
{"Substance": "KTKLFKKFAKKLAKKLKKLAKKL-OH [P80]", "Assay System": "P. aeruginosa", "Reading": 624}
{"Substance": "FAKFLAKFLKKAL-NH2 [P111, FAKFLAKFLKKAL-NH2]", "Assay System": "P. aeruginosa", "Reading": 624}
{"Substance": "FAKKLAKKLKKLAKKLAK-OH [P71]", "Assay System": "P. aeruginosa", "Reading": 624}
{"Substance": "LPKWKVFKKIEKVGRNIRNGIVKAGPAIAVLGEAKALG-NH2 [P306, reference compound]", "Assay System": "P. aeruginosa", "Reading": 312}
{"Substance": "FAKLLAKALKKLL-NH2 [P55]", "Assay System": "P. aeruginosa", "Reading": 624}
{"Substance": "FALALKALKKLLKKLKKLAKKAL-NH2 [P24]", "Assay System": "P. aeruginosa", "Reading": 624}
{"Substance": "FAKLLAKLAKKVL-NH2 [P124]", "Assay System": "P. aeruginosa", "Reading": 624}
{"Substance": "FALKALKKLKKALKKAL-NH2 [P153]", "Assay System": "P. aeruginosa", "Reading": 624}
{"Substance": "FALLKALLKKAL-NH2 [P177, FALLKALLKKAL-NH2]", "Assay System": "P. aeruginosa", "Reading": 312}
{"Substance": "FAKLLAKALKKFL-NH2 [P118]", "Assay System": "P. aeruginosa", "Reading": 624}
{"Substance": "FAKKLAKKLKKLAKKLAKKWKL-OH [P72]", "Assay System": "P. aeruginosa", "Reading": 312}
{"Substance": "FAKLLAKLAKKL-NH2 [P49]", "Assay System": "P. aeruginosa", "Reading": 624}
{"Substance": "KYKKALKKLAKLL-NH2 [P146]", "Assay System": "P. aeruginosa", "Reading": 624}
{"Substance": "FAKKLAKKLAKLAL-NH2 [P45, FAKKLAKKLAKLAL-NH2]", "Assay System": "P. aeruginosa", "Reading": 624}
{"Substance": "FAKKLKKLAKLAKKL-NH2 [P46]", "Assay System": "P. aeruginosa", "Reading": 624}
{"Substance": "FAKLLAKALKLKL-NH2 [P101]", "Assay System": "P. aeruginosa", "Reading": 624}
{"Substance": "VALALKALKKLLKKLKKLAKKAL-NH2 [P510]", "Assay System": "P. aeruginosa", "Reading": 624}
{"Substance": "FAKLLAKALKKAL-NH2 [P102, FAKLLAKALKKAL-NH2]", "Assay System": "P. aeruginosa", "Reading": 624}
{"Substance": "FAKLLKLAAKKLL-NH2 [P56]", "Assay System": "P. aeruginosa", "Reading": 624}
{"Substance": "FAKKLAKKLAKLL-NH2 [P75]", "Assay System": "P. aeruginosa", "Reading": 624}
{"Substance": "KLALKLALKALKAAKLA-NH2 [P150]", "Assay System": "P. aeruginosa", "Reading": 312}
{"Substance": "FALALKKALKALKKAL-NH2 [P34]", "Assay System": "P. aeruginosa", "Reading": 624}
{"Substance": "FALAAKALKKLAKKLKKLAKKAL-NH2 [P23]", "Assay System": "P. aeruginosa", "Reading": 624}
{"Substance": "FAKKLAKLAKKLAKAL-NH2 [P109]", "Assay System": "P. aeruginosa", "Reading": 624}
{"Substance": "MPKWKVFKKIEKVGRNIRNGIVKAGPAIAVLGEAKALG-NH2 [P12, reference compound]", "Assay System": "P. aeruginosa", "Reading": 312}
{"Substance": "FAKLLAKLAKKLL-NH2 [P43]", "Assay System": "P. aeruginosa", "Reading": 624}
{"Substance": "VAKKLAKLAKKLAKLAL-NH2 [P50]", "Assay System": "P. aeruginosa", "Reading": 624}

---

Test system: Pseudomonas aeruginosa ATCC 9027
Experiment: Antimicrobial assay I, MIC by OD measurement
Format: cell-based
Details: 37° C. for 24 hours, absorbance 620 nm
No end group written: not given here.
Endpoint Name: paerug9027 (MIC)

{"Substance": "FAKLLAKALKKFL-NH2 [P118]", "Reading": "100 µg/mL"}
{"Substance": "FAKKLAKALL-NH2 [P58]", "Reading": "100 µg/mL"}
{"Substance": "FAKKLAKLAKKLLAL-NH2 [P38, FAKKLAKLAKKLLAL-NH2]", "Reading": "50 µg/mL"}
{"Substance": "FAKKLAKLAKKALAL-NH2 [P39, FAKKLAKLAKKALAL-NH2]", "Reading": "25 µg/mL"}
{"Substance": "FAKLWAKLAFGKGIGKVGKKLL-NH2 [P135]", "Reading": "10 µg/mL"}
{"Substance": "FAKLLAKLAKKAL-NH2 [P54, FAKLLAKLAKKAL-NH2]", "Reading": "50 µg/mL"}
{"Substance": "FAKKLKKLAKLAKKL-NH2 [P46]", "Reading": "5 µg/mL"}
{"Substance": "LKKLAKLALAF-NH2 [P179]", "Reading": "50 µg/mL"}

---

Quick list: CC50 at 24 h per entry.
Assay: in vitro
Settings: human, WI38 normal lung fibroblast cells, WI-38 LD50, Table 26, valine substitution

{"Smiles Notation": "CC(C)C[C@H](NC(=O)[C@H](C)NC(=O)[C@H](CC(C)C)NC(=O)[C@H](C)NC(=O)[C@H](CC(C)C)NC(=O)[C@H](CCCCN)NC(=O)[C@H](C)NC(=O)[C@H](CC(C)C)NC(=O)[C@H](CCCCN)NC(=O)[C@H](CCCCN)NC(=O)[C@H](C)NC(=O)[C@H](CC(C)C)NC(=O)[C@H](CCCCN)NC(=O)[C@H](C)NC(=O)[C@H](CC(C)C)NC(=O)[C@H](CCCCN)NC(=O)[C@H](CCCCN)NC(=O)[C@H](C)NC(=O)[C@@H](N)Cc1ccccc1)C(N)=O", "Units Of Measure": "µg/mL", "CC50 at 24 h": 19}
{"Smiles Notation": "CC(C)C[C@H](NC(=O)[C@H](C)NC(=O)[C@H](CC(C)C)NC(=O)[C@H](CCCCN)NC(=O)[C@H](C)NC(=O)[C@H](CC(C)C)NC(=O)[C@H](CCCCN)NC(=O)[C@H](CCCCN)NC(=O)[C@H](C)NC(=O)[C@H](CC(C)C)NC(=O)[C@H](CCCCN)NC(=O)[C@H](C)NC(=O)[C@H](CC(C)C)NC(=O)[C@H](CCCCN)NC(=O)[C@H](CCCCN)NC(=O)[C@H](C)NC(=O)[C@@H](N)Cc1ccccc1)C(N)=O", "Units Of Measure": "µg/mL", "CC50 at 24 h": 25}
{"Smiles Notation": "CC(C)C[C@H](NC(=O)[C@H](C)NC(=O)[C@H](CC(C)C)NC(=O)[C@H](C)NC(=O)[C@H](CC(C)C)NC(=O)[C@H](CCCCN)NC(=O)[C@H](C)NC(=O)[C@H](CC(C)C)NC(=O)[C@H](CCCCN)NC(=O)[C@H](CCCCN)NC(=O)[C@H](C)NC(=O)[C@H](CC(C)C)NC(=O)[C@H](CCCCN)NC(=O)[C@H](C)NC(=O)[C@H](CC(C)C)NC(=O)[C@H](CCCCN)NC(=O)[C@H](CCCCN)NC(=O)[C@H](C)NC(=O)[C@@H](N)C(C)C)C(N)=O", "Units Of Measure": "µg/mL", "CC50 at 24 h": 110}

---

System: human red blood cells (RBC); also: unit not given here
Assay: in vitro
Assay type: cell-based
Settings: human red blood cells
No end group written: not given here.
Documented Peptide toxicity RBC LD/50 across a set of substances
Endpoint Name: Peptide toxicity RBC LD/50

{"Substance": "FAKALAKLAKKLL-NH2 [compound 58]", "Inequality Sign": "=", "Reading": 300}
{"Substance": "FALALKALKKALKKLKKALKKAL-NH2 [compound 2]", "Inequality Sign": "=", "Reading": 30}
{"Substance": "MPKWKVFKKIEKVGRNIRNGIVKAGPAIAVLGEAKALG-NH2 [compound 5]", "Inequality Sign": ">", "Reading": 1000}
{"Substance": "FAKLLALALKKAL-NH2 [compound 165]", "Inequality Sign": "=", "Reading": 350}
{"Substance": "FAKLLAKLAKKLL-NH2 [compound 25]", "Inequality Sign": "=", "Reading": 20}
{"Substance": "MPKEKVFLKIEKMGRNIRN-NH2 [compound 71]", "Inequality Sign": ">", "Reading": 1000}
